Experiment: Human HepG2 cell viability assay in 384 well format
Format: toxicity, cell-based
Design: dose 125 nL, time 70.5 hour; concentration not given beside the values
Conditions: HepG2 cells, read-out: Inhibition
Each entry below carries its recorded cytotoxicity at 70.5 h.
Give the quantity in %, number only.

Consider the worked cases shown below.
MOLECULE | cytotoxicity at 70.5 h (%)
Cn1nc(CN2CCCCC2)c2c1CN(C(=O)c1ccoc1)C2 | 16.5
OC1CCN(CCNc2ncc3c(n2)CCN3c2ccccc2)CC1 | -7.98
FC(F)(F)c1cc(N2CCc3ncnc(NC4CC4)c3CC2)ncn1 | 5.67
CC(NC(=O)Nc1cccnc1N1CCOCC1)c1ccccn1 (configuration not stated) | -8.36
CCn1ccnc1CN1CCCN(C(=O)C2(C#N)CCCCC2)CC1 | -3.94
Cc1noc(C)c1CC(=O)NCC1(O)CCCN(c2ccccn2)C1 (configuration not stated) | 13.4

Request the reported cytotoxicity at 70.5 h associated with Cc1ccc(C(=O)NS(=O)(=O)c2cc(F)ccc2F)c(=O)[nH]1
-13.1

Request the reported cytotoxicity at 70.5 h associated with Cc1cc(C)cc(OCC(=O)N2CCCC2)c1
-21.3

Request the reported cytotoxicity at 70.5 h associated with Cc1nc(CN2CCOCC3(CCN(c4ccccn4)C3)C2)cs1 (configuration not stated)
-40.4

Request the reported cytotoxicity at 70.5 h associated with Cn1cc(-c2nc(C(=O)N3CCCC3Cn3cccn3)cs2)cn1 (configuration not stated)
-4.01

Request the reported cytotoxicity at 70.5 h associated with CC1CCN(CC(=O)NC(C#N)c2cnn(-c3ccccc3)c2)CC1 (configuration not stated)
-2.96
